# target_desc: human TOR (Homo sapiens)
# Construct: FLAG
# assay_procedure: mTOR enzyme assay (DELFIA, His6-S6K substrate)
# Format: biochemical
# test_parameters: read-out: mTOR Kinase Avg. IC50
Let's look at some molecules and their measured IC50.

- molecule: "CN(C)CCCNC(=O)c1ccc(-c2cccc3c2c(/C=C2\\Oc4cc(O)cc(O)c4C2=O)cn3C)cc1 [Example 387]"
  qualifier_symbol: "="
  IC50 / nM: 340
- molecule: "COc1ccc2c(c1)c(/C=C1\\Oc3cc(-c4ccc(NC(C)=O)cc4)ccc3C1=O)cn2CCCN(C)C [Example 426]"
  qualifier_symbol: ">"
  IC50 / nM: 20000
- molecule: "COc1ccc2[nH]c(C)c(C=C3Oc4cc(O)cc(O)c4C3=O)c2c1 [Example 73]"
  qualifier_symbol: "="
  IC50 / nM: 2.7
- molecule: "COc1ccc2[nH]cc(C=C3Oc4cc(SC)ccc4C3=O)c2c1 [Example 434]"
  qualifier_symbol: ">"
  IC50 / nM: 20000

---

Listed next: entries and their corresponding pIC50.
# target_desc: PI3K-alpha (Homo sapiens)
# Sequence (P42336 whole entry, species assumed): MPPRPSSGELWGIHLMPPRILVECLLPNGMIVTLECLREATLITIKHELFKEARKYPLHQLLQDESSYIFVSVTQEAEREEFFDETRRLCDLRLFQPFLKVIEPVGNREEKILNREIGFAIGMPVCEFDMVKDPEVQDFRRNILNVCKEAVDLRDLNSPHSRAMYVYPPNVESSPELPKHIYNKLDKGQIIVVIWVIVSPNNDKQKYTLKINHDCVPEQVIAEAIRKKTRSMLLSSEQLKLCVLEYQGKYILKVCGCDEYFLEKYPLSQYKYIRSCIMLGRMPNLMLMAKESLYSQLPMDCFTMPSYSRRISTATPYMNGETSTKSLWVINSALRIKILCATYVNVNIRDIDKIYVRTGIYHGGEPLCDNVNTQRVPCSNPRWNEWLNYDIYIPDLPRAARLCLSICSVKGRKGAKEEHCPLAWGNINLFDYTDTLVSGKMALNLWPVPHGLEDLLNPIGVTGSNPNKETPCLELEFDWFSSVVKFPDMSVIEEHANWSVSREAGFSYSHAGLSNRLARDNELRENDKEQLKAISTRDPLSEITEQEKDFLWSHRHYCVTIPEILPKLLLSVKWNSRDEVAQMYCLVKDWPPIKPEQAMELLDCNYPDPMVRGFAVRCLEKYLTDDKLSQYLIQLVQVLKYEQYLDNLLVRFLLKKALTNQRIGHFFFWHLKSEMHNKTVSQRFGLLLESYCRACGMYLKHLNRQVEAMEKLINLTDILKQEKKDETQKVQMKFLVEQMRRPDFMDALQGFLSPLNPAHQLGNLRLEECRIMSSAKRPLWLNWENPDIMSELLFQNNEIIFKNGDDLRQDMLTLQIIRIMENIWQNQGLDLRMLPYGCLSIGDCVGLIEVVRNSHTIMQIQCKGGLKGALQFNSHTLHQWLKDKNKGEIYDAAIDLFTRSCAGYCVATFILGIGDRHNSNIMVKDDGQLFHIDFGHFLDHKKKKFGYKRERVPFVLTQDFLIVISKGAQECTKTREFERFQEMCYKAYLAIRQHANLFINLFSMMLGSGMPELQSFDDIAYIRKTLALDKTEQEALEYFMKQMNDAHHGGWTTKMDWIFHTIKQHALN
# Sequence (P27986 whole entry partner, species assumed): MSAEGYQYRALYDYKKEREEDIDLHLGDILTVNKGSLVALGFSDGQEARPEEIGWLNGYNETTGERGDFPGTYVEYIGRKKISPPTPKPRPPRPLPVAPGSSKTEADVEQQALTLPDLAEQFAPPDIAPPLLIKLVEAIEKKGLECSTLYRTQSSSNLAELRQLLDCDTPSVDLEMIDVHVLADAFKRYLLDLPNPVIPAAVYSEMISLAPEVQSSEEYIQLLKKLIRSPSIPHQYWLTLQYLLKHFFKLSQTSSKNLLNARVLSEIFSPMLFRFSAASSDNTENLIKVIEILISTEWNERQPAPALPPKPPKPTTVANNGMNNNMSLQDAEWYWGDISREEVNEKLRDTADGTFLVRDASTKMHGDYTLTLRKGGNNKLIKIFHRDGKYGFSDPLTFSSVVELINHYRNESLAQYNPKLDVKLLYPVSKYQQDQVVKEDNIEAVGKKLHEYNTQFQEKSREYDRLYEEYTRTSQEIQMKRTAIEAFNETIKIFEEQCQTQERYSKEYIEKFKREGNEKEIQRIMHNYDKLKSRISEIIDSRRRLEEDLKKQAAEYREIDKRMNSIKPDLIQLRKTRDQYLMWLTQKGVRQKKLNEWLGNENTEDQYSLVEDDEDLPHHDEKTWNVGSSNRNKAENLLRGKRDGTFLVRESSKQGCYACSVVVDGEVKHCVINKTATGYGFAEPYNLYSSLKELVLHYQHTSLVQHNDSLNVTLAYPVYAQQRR
# assay_procedure: PI3K-alpha fluorescence polarization assay
# Assay type: biochemical
# test_parameters: read-out: PI3Kα Avg. IC50
pIC50: −log10 of the molar value.

- cpd_smiles: "COc1ccc2c(c1)c(/C=C1\\Oc3ccc(NC(=O)NCCCCN)cc3C1=O)cn2CCN1CCN(C)CC1"
  pIC50: 6.94
- cpd_smiles: "COc1ccc2[nH]c(-c3ccccc3)c(C=C3Oc4c(ccc(O)c4O)C3=O)c2c1"
  pIC50: 7.13
- cpd_smiles: "COc1ccc2c(c1)c(/C=C1\\Oc3cc(O)cc(O)c3C1=O)c(C(F)(F)F)n2CC(=O)N(C)C"
  pIC50: 7.18

---

This section presents compounds with their documented pIC50 values.
# target_desc: human TOR (Homo sapiens)
# Construct: FLAG
# assay_procedure: mTOR enzyme assay (DELFIA, His6-S6K substrate)
# Assay type: biochemical
# test_parameters: read-out: mTOR Kinase Avg. IC50
pIC50: −log10 of the molar value.

- cpd_smiles: "COc1ccc2[nH]cc(/C=C3\\Oc4cc(O)cc(O)c4C3=O)c2c1"
  pIC50: 6.58
- cpd_smiles: "O=C1/C(=C/c2c(-c3ccccc3)[nH]c3ccccc23)Oc2c1ccc(O)c2O"
  pIC50: "< 4.52"
- cpd_smiles: "COc1ccc2c(c1)c(C=C1Oc3cc(O)cc(O)c3C1=O)c(C)n2CCCCl"
  pIC50: "> 7.68"

---

Each record here notes measured IC50.
# target_desc: human TOR (Homo sapiens)
# Construct: FLAG
# assay_procedure: mTOR enzyme assay (DELFIA, His6-S6K substrate)
# Assay type: biochemical
# test_parameters: read-out: mTOR Kinase Avg. IC50

- compound: "COc1ccc2c(c1)c(/C=C1\\Oc3c(ccc(O)c3Cl)C1=O)c(C)n2CCN1CCN(C)CC1 [Example 451]"
  IC50: "> 20000 nM"
- compound: "O=C1C(=Cc2c[nH]c3cc4c(cc23)OCO4)Oc2cc(O)cc(O)c21 [Example 168]"
  IC50: "> 20000 nM"
- compound: "O=C1C(=Cc2c[nH]c3c(OCc4ccccc4)cccc23)Oc2cc(O)cc(O)c21 [Example 242]"
  IC50: "> 20000 nM"
- compound: "Cn1c(-c2ccccc2)c(C=C2Oc3ccccc3C2=O)c2ccccc21 [Example 3]"
  IC50: "> 20000 nM"
- compound: "COc1ccc2c(c1)c(C=C1Oc3cc(O)cc(O)c3C1=O)c(C)n2CCCCCl [Example 87]"
  IC50: "< 24 nM"
- compound: "O=C1/C(=C/c2c[nH]c3ccc(Cl)cc23)Oc2c1ccc(O)c2O [Example 63]"
  IC50: "> 20000 nM"
- compound: "COc1ccc2[nH]c(C)c(C=C3Oc4c(ccc(O)c4O)C3=O)c2c1 [Example 69]"
  IC50: "> 20000 nM"
- compound: "COC(=O)c1cccc2c(C=C3Oc4cc(O)cc(O)c4C3=O)c[nH]c12 [Example 245]"
  IC50: "> 20000 nM"
- compound: "COc1ccc2c(c1)c(/C=C1\\Oc3ccc(NC(=O)Nc4ccc(NCCN(C)C)cc4)cc3C1=O)c(C)n2CCN1CCN(C)CC1 [Compound 684]"
  IC50: "19 nM"
- compound: "Cc1c(C=C2Oc3cc(O)cc(O)c3C2=O)c2ccccc2n1CCCCl [Example 93]"
  IC50: "> 5000 nM"
- compound: "COc1ccc2c(c1)c(/C=C1\\Oc3cc(O)cc(O)c3C1=O)c(C1CC1)n2CCO [Example 313]"
  IC50: "0.53 nM"
- compound: "CN(C)c1ccc(-c2cccc3c2c(/C=C2\\Oc4cc(O)cc(O)c4C2=O)cn3C)cc1 [Example 385]"
  IC50: "18 nM"
- compound: "COc1ccc2c(c1)c(/C=C1\\Oc3ccc(NC(=O)Nc4ccc(N(C)C(=O)CCN(C)C)cc4)cc3C1=O)c(C)n2CCN1CCN(C)CC1 [Compound 695]"
  IC50: "330 nM"
- compound: "Cn1cc(/C=C2\\Oc3cc(O)cc(O)c3C2=O)c2c(-c3ccc(C#N)cc3)cccc21 [Example 368]"
  IC50: "44.5 nM"
- compound: "COc1ccc2[nH]c(-c3cnn(C)c3)c(/C=C3\\Oc4cc(O)cc(O)c4C3=O)c2c1 [Example 330]"
  IC50: "< 17 nM"
- compound: "COc1cc(OC)c2c(c1)O/C(=C\\c1c(-c3ccccc3)n(C)c3ccccc13)C2=O [Example 409]"
  IC50: "> 20000 nM"

---

# target_desc: PI3K-alpha (Homo sapiens)
# assay_procedure: PI3K-alpha fluorescence polarization assay
# Type: biochemical
# test_parameters: read-out: PI3Kα Avg. IC50
pIC50: −log10 of the molar value.
observed_property: pIC50

- cpd_smiles: "COc1ccc2[nH]c(C)c(C=C3Oc4c(ccc(O)c4O)C3=O)c2c1"
  qualifier_symbol: "="
  readout_number: 6.40
- cpd_smiles: "O=C1/C(=C/c2c[nH]c3ccc(Br)cc23)Oc2cc(O)ccc21"
  qualifier_symbol: "="
  readout_number: 5.19
- cpd_smiles: "COc1ccc2[nH]c(-c3c(C)nn(C)c3C)c(/C=C3\\Oc4ccc(NC(=O)Nc5cccc(C(=O)N(C)CCCN(C)C)c5)cc4C3=O)c2c1"
  qualifier_symbol: "="
  readout_number: 7.38
- cpd_smiles: "CNC(=O)Nc1ccc2c(c1)C(=O)/C(=C/c1c(-c3c(C)nn(C)c3C)[nH]c3ccc(OCCOC)cc13)O2"
  qualifier_symbol: "="
  readout_number: 5.72
- cpd_smiles: "Cc1c(C=C2Oc3cc(O)cc(O)c3C2=O)c2ccccc2n1C"
  qualifier_symbol: "="
  readout_number: 5.50
- cpd_smiles: "COc1ccc2c(c1)c(/C=C1\\Oc3ccc(NC(=O)NCCCN(C)C)cc3C1=O)cn2CCN1CCN(C)CC1"
  qualifier_symbol: "="
  readout_number: 6.62
- cpd_smiles: "CNC(=S)Nc1ccc2c(c1)C(=O)/C(=C/c1c(C)n(CCN3CCN(C)CC3)c3ccc(OC)cc13)O2"
  qualifier_symbol: "="
  readout_number: 8.00
- cpd_smiles: "CCc1c(/C=C2\\Oc3cc(O)cc(O)c3C2=O)c2cc(OC)ccc2n1CCCC#N"
  qualifier_symbol: "="
  readout_number: 8.52
- cpd_smiles: "Cc1[nH]c2ccc([N+](=O)[O-])cc2c1C=C1Oc2cc(O)cc(O)c2C1=O"
  qualifier_symbol: "="
  readout_number: 5.61
- cpd_smiles: "Cc1ccc2c(c1)C(=O)/C(=C/c1c(-c3ccc(Cl)cc3)[nH]c3ccccc13)S2"
  qualifier_symbol: "<"
  readout_number: 5.00
- cpd_smiles: "COc1ccc2c(c1)c(/C=C1\\Oc3ccc(O)cc3C1=O)c(C)n2CCN1CCN(C)CC1"
  qualifier_symbol: "="
  readout_number: 6.56
- cpd_smiles: "COc1ccc2c(c1)c(/C=C1\\Oc3cc(O)cc(O)c3C1=O)cn2CCCN(C)C"
  qualifier_symbol: "="
  readout_number: 7.69
- cpd_smiles: "Cn1cc(/C=C2\\Oc3ccc(NC(=O)Nc4cccnc4)cc3C2=O)c2c(-c3ccccc3)cccc21"
  qualifier_symbol: "<"
  readout_number: 5.00
- cpd_smiles: "CNC(=O)Nc1ccc2c(c1)C(=O)/C(=C/c1c(C3=CCNCC3)[nH]c3ccc(OC)cc13)O2"
  qualifier_symbol: "="
  readout_number: 8.10

---

# target_desc: human TOR (Homo sapiens)
# Construct: FLAG
# assay_procedure: mTOR enzyme assay (DELFIA, His6-S6K substrate)
# Type: biochemical
# test_parameters: read-out: mTOR Kinase Avg. IC50
# key: entry, value: IC50
observed_property: IC50

- cpd_smiles: "CNC(=O)Nc1ccc2c(c1)C(=O)/C(=C/c1c(-c3c(C)nn(C)c3C)[nH]c3c(F)cc(OC)cc13)O2"
  result: "< 1 nM"
- cpd_smiles: "COc1ccc2c(c1)c(/C=C1\\Oc3cc(O)cc(F)c3C1=O)c(C)n2CCN1CCN(C)CC1"
  result: "> 800 nM"
- cpd_smiles: "Cc1ccc2c(/C=C3\\Oc4cc(O)cc(O)c4C3=O)c[nH]c2c1"
  result: "> 5000 nM"
- cpd_smiles: "COc1ccc2c(c1)c(/C=C1\\Oc3cc(O)cc(O)c3C1=O)c(C)n2CCn1ccnc1"
  result: "< 24 nM"
- cpd_smiles: "COc1ccc2c(c1)c(/C=C1\\Oc3cc(O)c(Br)cc3C1=O)c(C)n2CCN1CCN(C)CC1"
  result: "> 20000 nM"
